Target: KRAS^G12D-FMe.RAF1^RBDCRD complex (Homo sapiens, UniProt P01116, G12D)
Test: SHG assay: binding to bilayer-tethered KRAS G12D/RAF1 complex
Details: GppNHp-loaded complex on PS bilayer; compound 0.027-40 μM, monitored over 60 min
parameter: EC50

Example molecules with recorded EC50:
Reported EC50 for Cc1ccc(-c2ncc(CNC(=O)C(F)(F)c3ccccc3)c(N3CCC(CN)C3)n2)cc1Cl (centres unmarked) : what is it? 1 to 10 µM

Reported EC50 for CN(C)CC1CCN(c2nc(-c3cc(Cl)cc(C(F)c4ccccc4)c3)ncc2CNC(=O)C2(C#N)CC2)C1 (centres unmarked) : what is it? 1 to 10 µM

Reported EC50 for Cc1ccc(-c2ncc(OCC(=O)Nc3ccccc3)c(N3CCC(CN)C3)n2)cc1Cl (centres unmarked) : what is it? 1 to 10 µM

Reported EC50 for N#Cc1cc(-c2ncc(C3=CCN(C(=O)C4(C#N)CC4)C3)c(N3CCC(CN)C3)n2)ccc1Cl (centres unmarked) : what is it? 10 to 50 µM

Reported EC50 for N[C@@H]1CN(c2nc(-c3ccc(Cl)c(C(F)(F)F)c3)ncc2C2=CCNC2)C[C@H]1O : what is it? 0.1 to 1 µM

Reported EC50 for Cc1ccc(-c2ncc(CNC(=O)C3(C#N)CC3)c(N3CCC(N)CC3)n2)cc1Cl : what is it? 1 to 10 µM

Reported EC50 for Cc1c(Cl)cc(-c2ncc(CNC(=O)C3(C#N)CC3)c(N3CCC(CN)C3)n2)cc1Cl (centres unmarked) : what is it? 1 to 10 µM

New cases:
Reported EC50 for Cc1ccc(-c2ncc(CNC(=O)C3Cc4ccccc4O3)c(N3CCC(CN)C3)n2)cc1Cl (centres unmarked) : what is it? 1 to 10 µM
